Assay: Cytotoxicity on HEK293 human embryonic kidney cells
Conditions: HEK-293 human embryonic kidney cells
experimental readout: IC50 (µM)
Respond with the bare value in µM.

Short answer for CC/C(=C(\c1ccccc1)c1ccc(OCCN(C)C)cc1)c1ccccc1 [tamoxifen, reference compound] : IC50 was 24

====

Tested on: C. neoformans ATCC 208821
Assay: MIC against C. neoformans ATCC 208821, CO-ADD
Format: cell-based
Settings: Cryptococcus neoformans, ATCC208821; C. neoformans ATCC 208821; mean of two experiments; read-out: MIC C. n
experimental readout: MIC

Here are 4 compounds together with their reported answers.
[[record]]
compound = "C/C1=C\\C[C@]2(C)C(=O)C(O)=C([C@H](C)CO)[C@H]2C/C=C(\\C)[C@@H](O)CC/C(C)=C/CC1 [compound 3, terpestacin]"
result = "> 79 µM"

[[record]]
compound = "C[C@@H]1CCC(=O)CCC(=O)O[C@H](C)CC[C@H](O)/C=C/C(=O)O1 [compound 4, tetrahydropyrenophorin]"
result = "> 102 µM"

[[record]]
compound = "OC(Cn1cncn1)(Cn1cncn1)c1ccc(F)cc1F [fluconazole, reference compound]"
result = "26 µM"

[[record]]
compound = "C[C@H]1CCC/C=C/[C@@H]2C[C@H](O)C[C@H]2[C@H](O)/C=C/C(=O)O1 [compound 8, brefeldin A]"
result = "> 114 µM"


// assay C. neoformans ATCC 208821, entry COc1c(CC(C)O)c2c3c(CC(C)O)c(OC)c(=O)c4c(O)cc5c(c6c(cc(O)c(c1=O)c62)OCO5)c43 (centres unmarked) [compound 7, cercosporin] , MIC value = > 60 µM

// assay C. neoformans ATCC 208821, entry CC(O)CCC(O)/C=C/C(=O)O (centres unmarked) [compound 1, (E)-4,7-dihydroxyoct-2-enoic acid] , MIC value = > 184 µM

// assay C. neoformans ATCC 208821, entry C[C@@H]1C[C@H]2O[C@@H]2/C=C\C=C\C(=O)Cc2c(Cl)c(O)cc(O)c2C(=O)O1 [compound 10, radicicol] , MIC value = > 88 µM

// assay C. neoformans ATCC 208821, entry CC1CCCCCC(=O)c2c(O)cc(O)cc2CC(=O)O1 (centres unmarked) [compound 5, curvularin] , MIC value = > 109 µM
